Species on record: Cavia porcellus
assay.details: Effect on KCl-stimulated contraction of aortic strips of guinea pig
Format: functional, Aorta
measured.parameter: EC50 (M l-1)

Determine its reported EC50: COC(=O)C1=C(C)NC(C)=C(C(=O)OC)C1c1ccccc1[N+](=O)[O-]
8.9e-09

[A] CO/C(O)=C1\C(C)=NC2=C(C(=O)CCC2)C1c1ccc2c(c1)OCO2 (racemic)
[B] CO[C@@H](COC(=O)C1=C(C)NC2=C(C(=O)CCC2)[C@H]1c1ccc2c(c1)OCO2)c1ccccc1
[C] CO[C@H](COC(=O)C1=C(C)NC2=C(C(=O)CCC2)[C@@H]1c1ccc2c(c1)OCO2)c1ccccc1
Which order do these items take when sorted by rising EC50? List them. I'd appreciate it if you listed the labels in the requested order.
A, C, B
(A: 2e-06 M l-1, C: 7.1e-06 M l-1, B: 4e-05 M l-1)
